The measured values listed here are drawn from patent US10766952B2.

system: T1, rat α-CGRP (Rattus norvegicus, UniProt P01256)
T1 construct: rat α (1-37); host or cells: synthetic peptide
T1 sequence (P01256 83-119 limits assumed): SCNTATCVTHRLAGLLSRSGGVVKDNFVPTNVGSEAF
measurement_notes: Biacore affinity of antibody G1 Fab and variants to rat α-CGRP
Format: binding
condition_details: 37° C., Fab, screening mode unless underlined
measure_name: α-rat koff (s⁻¹)

* M27: G1 variant: L1 R28N,T30A; HC-FW3 L99T,A100V (antibody, V domains shown) VH: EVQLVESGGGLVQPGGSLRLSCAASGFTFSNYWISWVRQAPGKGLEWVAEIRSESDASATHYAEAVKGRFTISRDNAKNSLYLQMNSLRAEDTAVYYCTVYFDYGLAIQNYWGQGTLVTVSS VL: EIVLTQSPATLSLSPGERATLSCKASKNVATYVSWYQQKPGQAPRLLIYGASNRYLGIPARFSGSGSGTDFTLTISSLEPEDFAVYYCSQSYNYPYTFGQGTKLEIK | 0.00341
